Hi there, I'd appreciate the recorded SF (E. coli) for every entry that follows.
Tested on: E. coli
Assay details: Sensitization of E. coli to erythromycin (sensitization fold from IC90, OD600, 20 h)
Assay type: cell-based, Escherichia coli
Condition parameters: sensitization fold = IC90 of erythromycin without/with compound; compound concentration not given; NA=no activity, T=toxic

Dear colleague, could you send me SF (E. coli) for each of the items below? Thanks.
1. N=C(N)c1ccc(OCc2ccc(-c3ccc(C(=N)N)cc3)cc2)cc1 [drawing 711]
2. N=C(N)c1ccc(OCc2cccc(COc3ccc(C(=N)N)cc3F)c2F)c(F)c1 [drawing 713]
3. Cc1cc(COc2ccc(C(=N)N)cc2)nc(COc2ccc(C(=N)N)cc2)c1
4. N=C(N)c1ccc2nc(-c3ccc(OCC(F)(F)C(F)(F)COc4ccc(-c5nc6ccc(C(=N)N)cc6[nH]5)cc4)cc3)[nH]c2c1 [drawing 706]
5. Cc1cc(-c2nc3cc(C(=N)N)ccc3n2C)sc1-c1ccc(OCCCCOc2ccc(C(=N)N)cc2)cc1 [drawing 715]

Output:
1. <2
2. 6
3. 33
4. <2
5. <2

Please supply SF (E. coli) for each of the following items, keeping them in order.
1. N=C(N)c1ccc(OCc2cccc(COc3ccc(C(=N)N)cc3)c2F)cc1 [drawing 718]
2. N=C(N)c1ccc(OCc2cccc(COc3ccc(C(=N)N)cc3)c2)cc1 [drawing 712]

Output:
<2
<2
